For each entry below, report its % fast value.
measured.on: T1, recombinant human VEGF165 (human, UniProt P15692-4 27-191)
T1 construct: also called hVEGF165; rhVEGF165
measurement.protocol: Biacore, periplasmic extract on hVEGF165 chip, two phase decay fit
Output should be the measured figure followed by the unit it is expressed in.

Quick check: % fast of VEGFBII23A06 (VHH, also called 23A6; VEGFBII23A6) VHH: EVQLVESGGGLVQPGDSLKLSCAFSGRTFSSYSMGWFRQAQGKEREFVVAISSGGFIYDAVSLEGRFTISRDNTKNTVYLQTPSLKPEDTAVYYCAASRAYGSSRLRLADTYDYWGQGTQVTVSS ? 13%

Quick check: % fast of VEGFBII62F02 (VHH, periplasmic extract) VHH: EVQLVESGGGLVQPGDSLKLSCAFSGRTFSSYSMGWFRQAQGKEREFVVAIASGGYIYDAVSLEGRFTISRDNTKDTVYLQTPSLKPEDTAVYYCAASRAYGSSRLRLADTYDYWGQGTQVTVSS ? 21%

Data provenance is patent US20170247475A1.
